Each entry below carries its recorded IC50.
- test_system: meprin α (Homo sapiens, UniProt Q16819)
- Sequence (Q16819 66-593 limits assumed): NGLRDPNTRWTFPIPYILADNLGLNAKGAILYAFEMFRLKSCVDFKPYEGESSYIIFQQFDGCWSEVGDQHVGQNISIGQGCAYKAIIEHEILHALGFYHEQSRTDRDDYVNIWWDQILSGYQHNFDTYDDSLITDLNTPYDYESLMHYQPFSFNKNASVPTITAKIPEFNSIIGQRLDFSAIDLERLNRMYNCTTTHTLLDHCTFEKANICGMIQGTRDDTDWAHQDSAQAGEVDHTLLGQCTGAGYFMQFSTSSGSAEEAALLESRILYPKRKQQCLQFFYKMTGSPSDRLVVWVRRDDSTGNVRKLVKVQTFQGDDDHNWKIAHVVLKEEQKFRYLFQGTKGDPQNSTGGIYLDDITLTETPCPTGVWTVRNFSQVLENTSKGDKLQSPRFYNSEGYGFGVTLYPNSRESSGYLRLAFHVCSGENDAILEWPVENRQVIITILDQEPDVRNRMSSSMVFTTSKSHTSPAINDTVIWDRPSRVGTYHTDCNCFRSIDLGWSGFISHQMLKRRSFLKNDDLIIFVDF
- protocol_notes: Meprin α assay, fluorogenic substrate (Mca)-YVADAPK-(K-ε-Dnp), 384 and 1536 well plate formats
- Type: biochemical
- applied_conditions: triplicate, 10-point, 3:1 serial dilution, highest concentration 17.4 µM; read-out: Meprin α IC50
readout_label: IC50

                                chem_smiles  readout_label    result
0  O=C(c1ccc(C(=O)O)c([N+](=O)[O-])c1)c1ccc(C(=O)O)c([N+](=O)[O-])c1           IC50   > 17 µM
1        O=C(CSc1nnc(NC(=O)COc2ccccc2)s1)NO           IC50  0.335 µM
2  O=[N+]([O-])c1ccc(CN2CCC3(CCc4ccccc43)CC2)o1           IC50   > 17 µM

// provenance: paper PMC8000592
